Target: full-length human LSD1 (Homo sapiens (Human))
Quantity Name: IC50

What IC50 value was documented for this compound, N#Cc1ccc(-c2cn(Cc3ccccc3F)c(=O)c(N3CCC(N)CC3)n2)cc1 [Example 3] ? < 0.1 µM

What IC50 value was documented for this compound, CCc1ccc(-c2c(-c3ccc(C#N)cc3)nc(NC[C@@H]3CCNC3)c(=O)n2C)cc1 [Example 29] ? < 0.1 µM

What IC50 value was documented for this compound, Cc1ccc(-c2c(-c3ccc(C#N)cc3)nc(N3CCCC(N)C3)c(=O)n2C)cc1 (stereo not drawn) [Example 22] ? < 0.1 µM

What IC50 value was documented for this compound, Cn1c(-c2ccc3c(c2)ncn3C)c(-c2ccc(C#N)c(F)c2)nc(N2CCC(N)CC2)c1=O [Example 60] ? < 0.1 µM

What IC50 value was documented for this compound, N#Cc1ccc(-c2cn(CC3CCOC3)c(=O)c(N3CCC(N)CC3)n2)cc1F (stereo not drawn) [Example 14] ? < 0.1 µM

What IC50 value was documented for this compound, CCc1ccc(-c2c(-c3ccc(C#N)cc3)nc(NC[C@H]3CCNC3)c(=O)n2C)cc1 [Example 28] ? < 0.1 µM

Dear reader, for each entry below, please note its IC50.
1. CNC1CCN(c2nc(-c3ccc(C#N)c(F)c3)c(-c3ccc(C)cc3)n(CCO)c2=O)CC1 [Example 65]
2. N#Cc1ccc(-c2nc(N3CCC(N)CC3)c(=O)n(CCO)c2-c2ccc(C3CC3)cc2)cc1 [Example 38]
3. COc1ccc(-c2c(-c3ccc(C#N)c(F)c3)cc(N3CCC(N)CC3)c(=O)n2C)cc1 [Example 67]
4. COc1ccc(-c2c(-c3ccc(C#N)cc3)nc(NC[C@@H]3CCNC3)c(=O)n2C)cc1 [Example 32]
5. COc1ccc(-c2c(-c3ccc(C#N)c(F)c3)nc(N3CCC(N)CC3)c(=O)n2C)cc1 [Example 52]
6. CCc1ccc(-c2c(-c3ccc(C#N)cc3)nc(N3CCC(N)CC3)c(=O)n2C)cc1 [Example 27]
7. CCc1ccc(-c2c(-c3ccc(C#N)nc3)cc(NC[C@H]3CCNC3)c(=O)n2C)cc1 [Example 71]
8. COCCn1c(-c2ccc(C)cc2)c(-c2ccc(C#N)c(F)c2)nc(N2CCC(N)CC2)c1=O [Example 41]

["< 0.1 µM", "< 0.1 µM", "< 0.1 µM", "< 0.1 µM", "< 0.1 µM", "< 0.1 µM", "< 0.1 µM", "< 0.1 µM"]

Taken from patent US11028066B2.
